# Test system: SK-OV-3
# Test protocol: NCI tumour cell line growth inhibition, 48 h
Activity calls are given as the source filed them. Rule as the data show it: active = GI50 up to about 1.1 µM and inactive = higher.
Catalogue of GI50 readings, one per entry.

| Compound | GI50 |
| --- | --- |
| Cc1c(Cl)cccc1NC(=O)c1cccc([N+](=O)[O-])c1O | 25.6 µM (inactive) |
| O=C1C(Br)=C[C@H]2C3C=CC(Br)(C3=O)[C@@H]12 (some centres not stated) | 7.69 µM (inactive) |
| O=C(Cc1ccccc1)NN1C(=O)/C(=C\c2ccccc2)S/C1=N\c1ccccc1 | > 100 µM (inactive) |
| COc1ccc(CC2c3cc(Oc4cc(CC5c6cc(OC)c(OC)cc6CCN5C)ccc4O)c(OC)cc3CCN2C)cc1 (configuration not stated) | 9.29 µM (inactive) |
| CCCCCCCCCc1cc(=O)c2c(O)cccc2o1 | > 100 µM (inactive) |
| COc1cc(-c2cc(=O)c3c(O)c(CC=C(C)C)c(O)cc3o2)ccc1O | 32.3 µM (inactive) |
| CC(=O)c1c(P(=O)(OC(C)C)OC(C)C)nn(-c2ccc([N+](=O)[O-])cc2)c1C | > 100 µM (inactive) |
| CNC(=O)N1N[C@H](c2ccccc2)[C@@H]1c1ccccc1.OB(O)O | 34 µM (inactive) |
| CC(=O)SCCC(NC(=S)Nc1ccccc1)P(=O)(Oc1ccccc1)Oc1ccccc1 (configuration not stated) | > 100 µM (inactive) |
| COc1c(-c2nc3ccc(N4CCN(C)CC4)cc3[nH]2)cc(OC)c2[nH]c(CO)nc12 | > 100 µM (inactive) |
| Cc1ccc(S(=O)(=O)SCc2ccccc2CSS(=O)(=O)c2ccc(C)cc2)cc1 | > 100 µM (inactive) |
| c1ccc(/C(=N\Nc2nc3ccccc3s2)c2ccccn2)cc1 | 8.28 µM (inactive) |
